- targetEntity: α4β7 integrin (Homo sapiens (Human), UniProt P13612+P26010)
- Sequence (P26010 20-798, one chain of several): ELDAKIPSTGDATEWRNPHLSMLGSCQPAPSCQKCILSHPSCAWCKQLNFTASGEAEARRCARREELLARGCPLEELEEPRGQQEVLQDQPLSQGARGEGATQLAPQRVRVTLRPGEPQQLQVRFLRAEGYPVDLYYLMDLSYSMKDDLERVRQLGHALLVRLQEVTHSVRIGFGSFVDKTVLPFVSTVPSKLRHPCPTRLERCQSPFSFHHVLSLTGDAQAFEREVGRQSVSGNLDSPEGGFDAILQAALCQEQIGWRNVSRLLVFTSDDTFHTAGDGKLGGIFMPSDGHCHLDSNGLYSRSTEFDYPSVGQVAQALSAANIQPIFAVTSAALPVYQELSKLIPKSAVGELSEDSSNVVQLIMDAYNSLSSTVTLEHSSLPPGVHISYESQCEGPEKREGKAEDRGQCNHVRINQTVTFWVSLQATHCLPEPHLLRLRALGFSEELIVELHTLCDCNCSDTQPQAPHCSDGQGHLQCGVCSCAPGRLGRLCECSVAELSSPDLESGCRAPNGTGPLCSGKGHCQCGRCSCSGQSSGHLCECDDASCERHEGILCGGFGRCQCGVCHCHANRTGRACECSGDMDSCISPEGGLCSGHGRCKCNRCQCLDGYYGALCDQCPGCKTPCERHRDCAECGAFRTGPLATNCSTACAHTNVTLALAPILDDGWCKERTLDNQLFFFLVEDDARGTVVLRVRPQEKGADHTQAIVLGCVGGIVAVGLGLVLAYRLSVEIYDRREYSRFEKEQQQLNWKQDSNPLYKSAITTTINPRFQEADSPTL
- assayProtocol: Integrin Adhesion Assay: Protocol 4 (MAdCAM-coated plate, RPMI-8866 cells with stable LOF mutation of the ITGB1 gene)
- Format: cell-based
- testConditions: RPMI-8866 cells with stable LOF mutation of the ITGB1 gene; read-out: Mean IC50 α4β7 KO^a
- Source text: Integrin Adhesion Assay Using Genetically Modified Cells Generating Stable Cell Lines with ITGB1 or ITGB7 Knockout (Protocol 4 and Protocol 5) […] To generate an individual clones of cells deficient in either ITGB7 or ITGB1 by limiting dilution assay, the transfected cells were resuspended at 5 cells/mL and seeded in 384 well plates. Outgrowth of clones was monitored using a microscope, and 24 clones were transferred for expansion. […]
attributeMeasured: IC50

Study these solved cases before continuing.
COc1ccc(CN2CCC(F)(F)CC2)c(OC)c1-c1cccc2c(C[C@H](NC(=O)c3c(C)cc4cn(CC(F)(F)F)nc4c3F)C(=O)O)cccc12 | 100 to 1000 nM
COc1ccc(CN(C)C)c(C)c1-c1cccc2c(C[C@H](NC(=O)c3c(C)cccc3F)C(=O)O)cccc12 | < 10 nM
COc1cccc(CN2CCCCC2)c1-c1cccc2c(C[C@H](NC(=O)c3c(F)cccc3C(F)(F)F)C(=O)O)cccc12 | < 10 nM

The compound "O=C(O)[C@H](Cc1cccc2c(-c3nccc4c(CN5CCCC5)cccc34)cccc12)NC(=O)C1(C(F)(F)F)CCN(CC(F)(F)F)CC1" , tested on α4β7 integrin (Homo sapiens (Human), UniProt P13612+P26010), showed IC50 of < 10 nM

The compound "COc1ccc(CN2CCC3(CC2)CC3)c(OC)c1-c1cccc2c(C[C@H](NC(=O)c3c(C)cccc3F)C(=O)O)cccc12" , tested on α4β7 integrin (Homo sapiens (Human), UniProt P13612+P26010), showed IC50 of < 10 nM

The compound "O=C(O)[C@H](Cc1cccc2c(-c3nccc4ccc(CCCN5CCCCC5)cc34)cccc12)NC(=O)C1(C(F)(F)F)CCN([C@@H]2COCC2(F)F)CC1" , tested on α4β7 integrin (Homo sapiens (Human), UniProt P13612+P26010), showed IC50 of < 10 nM

###

- targetEntity: α4β7 integrin (Homo sapiens (Human), UniProt P13612+P26010)
- assayProtocol: Integrin Adhesion Assay: Protocol 1 (MAdCAM-coated plate, RPMI-8866 cells, CellTiter GLO readout)
- Format: cell-based
pIC50: −log10 of the molar value.
Below: a set of entries, each annotated with reported pIC50.

Study these solved cases before continuing.
Cn1c(=O)c(-c2cccc3c(C[C@H](NC(=O)c4c(F)cc([C@H]5C[C@@H](N(C)C)C5)cc4F)C(=O)O)cccc23)c(C(F)(F)F)c2ccccc21 | 6.00 to 7.00
Cn1c(=O)c(-c2cccc3c(C[C@H](NC(=O)c4c(F)cccc4CN4CCCC4)C(=O)O)cccc23)c(C(F)(F)F)c2ccccc21 | > 8.00

As a next step, examine the compound that follows.
For reference, reported pIC50 for "Cc1cccc(C)c1-c1ccc(F)c(C(=O)N[C@@H](Cc2cccc3c(-c4c(C(F)(F)F)c5ccccc5n(C)c4=O)cccc23)C(=O)O)c1F" stands at 6.00 to 7.00

###

Below: a set of entries, each annotated with reported IC50.
- targetEntity: α4β1 integrin (Homo sapiens (Human), UniProt P05556+P13612)
- Sequence (P13612 34-1032): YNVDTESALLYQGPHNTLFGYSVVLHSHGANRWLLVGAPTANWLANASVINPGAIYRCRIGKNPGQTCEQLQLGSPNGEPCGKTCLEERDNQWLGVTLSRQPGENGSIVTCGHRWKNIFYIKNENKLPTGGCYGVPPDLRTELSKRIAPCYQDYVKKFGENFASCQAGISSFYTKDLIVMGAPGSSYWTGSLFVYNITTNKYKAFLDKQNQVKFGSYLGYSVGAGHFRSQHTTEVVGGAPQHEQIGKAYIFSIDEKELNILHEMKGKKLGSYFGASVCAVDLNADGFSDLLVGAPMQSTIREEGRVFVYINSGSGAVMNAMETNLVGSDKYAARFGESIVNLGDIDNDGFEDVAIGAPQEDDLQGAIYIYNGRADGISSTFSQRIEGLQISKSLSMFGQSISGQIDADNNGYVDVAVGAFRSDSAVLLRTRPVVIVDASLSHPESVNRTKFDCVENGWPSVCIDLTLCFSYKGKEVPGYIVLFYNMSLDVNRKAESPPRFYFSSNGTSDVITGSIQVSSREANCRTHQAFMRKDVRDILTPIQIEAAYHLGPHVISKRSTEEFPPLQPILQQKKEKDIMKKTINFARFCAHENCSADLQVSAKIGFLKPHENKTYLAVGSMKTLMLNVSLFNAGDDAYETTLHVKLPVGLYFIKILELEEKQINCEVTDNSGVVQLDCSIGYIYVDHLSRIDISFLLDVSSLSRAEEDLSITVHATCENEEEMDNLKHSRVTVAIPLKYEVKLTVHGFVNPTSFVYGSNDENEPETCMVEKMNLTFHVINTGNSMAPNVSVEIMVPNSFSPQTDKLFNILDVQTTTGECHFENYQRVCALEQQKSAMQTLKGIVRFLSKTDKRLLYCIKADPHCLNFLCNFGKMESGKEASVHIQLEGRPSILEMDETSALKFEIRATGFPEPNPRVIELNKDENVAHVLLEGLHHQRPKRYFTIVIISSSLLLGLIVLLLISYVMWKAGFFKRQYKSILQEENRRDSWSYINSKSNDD
- Sequence (P05556 21-798): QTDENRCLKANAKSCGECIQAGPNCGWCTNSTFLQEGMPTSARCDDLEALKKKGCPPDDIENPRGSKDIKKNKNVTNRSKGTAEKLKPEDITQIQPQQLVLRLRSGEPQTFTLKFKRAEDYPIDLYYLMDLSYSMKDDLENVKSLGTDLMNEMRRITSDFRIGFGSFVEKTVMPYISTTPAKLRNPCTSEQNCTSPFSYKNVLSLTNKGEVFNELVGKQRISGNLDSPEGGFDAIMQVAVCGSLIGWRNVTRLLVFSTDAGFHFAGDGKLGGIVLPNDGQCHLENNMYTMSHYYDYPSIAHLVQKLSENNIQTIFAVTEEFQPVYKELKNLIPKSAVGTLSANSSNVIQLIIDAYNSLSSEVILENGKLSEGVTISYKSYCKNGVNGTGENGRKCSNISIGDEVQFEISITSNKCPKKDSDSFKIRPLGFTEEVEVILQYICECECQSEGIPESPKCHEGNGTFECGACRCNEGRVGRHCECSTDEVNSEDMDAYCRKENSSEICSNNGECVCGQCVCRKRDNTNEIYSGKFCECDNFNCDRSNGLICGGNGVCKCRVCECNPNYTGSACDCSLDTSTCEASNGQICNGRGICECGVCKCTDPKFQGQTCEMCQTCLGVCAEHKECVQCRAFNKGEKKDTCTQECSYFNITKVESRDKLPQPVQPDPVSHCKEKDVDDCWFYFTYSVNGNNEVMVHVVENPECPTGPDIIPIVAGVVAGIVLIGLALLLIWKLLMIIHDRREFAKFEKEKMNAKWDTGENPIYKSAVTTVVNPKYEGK
- assayProtocol: Integrin Adhesion Assay: Protocol 5 (VCAM-coated plate, RPMI-8866 cells with stable LOF mutation of the ITGB7 gene)
- Format: cell-based
- testConditions: Protocol 5; RPMI-8866 cells with LOF mutation of ITGB7, VCAM; read-out: Mean IC50 α4β1 KO

Study these solved cases before continuing.
COc1cccc(CCN2CCCC(F)C2)c1-c1cccc2c(C[C@H](NC(=O)C3(C(F)(F)F)CCN(CC(F)(F)F)CC3)C(=O)O)cccc12 (stereo partly drawn) [Compound 959] | 0.1 to 1 µM
COc1cc(CN2CCC[C@@H](F)C2)cc(C(F)(F)F)c1-c1cccc2c(C[C@H](NC(=O)C3(C(F)(F)F)CCN(CC(F)(F)F)CC3)C(=O)O)cccc12 [Compound 849] | > 1 µM
O=C(O)[C@H](Cc1cccc2c(-c3ncc(CN4CCC(F)(F)CC4)cc3C3CC3)cccc12)NC(=O)C1(C(F)(F)F)CCN(CC(F)F)CC1 [Compound 951] | 0.1 to 1 µM
COc1cc(C(F)(F)F)cc(CCN2CCCCC2)c1-c1cccc2c(C[C@H](NC(=O)C3(C(F)(F)F)CCN(CC(F)(F)F)CC3)C(=O)O)cccc12 [Compound 741] | > 1 µM
COc1cc(CN2CCC(F)(F)C2)cc(OC)c1-c1cccc2c(C[C@H](NC(=O)C3(C(F)(F)F)CCN(CC(F)(F)F)CC3)C(=O)O)cccc12 [Compound 797] | > 1 µM

For reference, reported IC50 for O=C(O)[C@H](Cc1cccc2c(-c3ncc(CN4CCC5(CC4)CC5)c4ccccc34)cccc12)NC(=O)C1(C(F)(F)F)CCN(CC(F)(F)F)CC1 [Compound 883] stands at > 1 µM

For reference, reported IC50 for C[C@@H]1CN(Cc2cnc(-c3cccc4c(C[C@H](NC(=O)C5(C(F)(F)F)CCN(CC(F)(F)F)CC5)C(=O)O)cccc34)c3ccccc23)C[C@H](C)O1 [Compound 863] stands at > 1 µM

For reference, reported IC50 for COc1cccc(CCN2CCCCC2)c1-c1cccc2c(C[C@H](NC(=O)C3(C(F)(F)F)CCN(CC(F)(F)F)CC3)C(=O)O)cccc12 [Compound 956] stands at 0.1 to 1 µM

For reference, reported IC50 for COc1c(CN(C)C)ccc(Cl)c1-c1cccc2c(C[C@H](NC(=O)c3c(C)cccc3F)C(=O)O)cccc12 [Compound 1011] stands at > 1 µM

For reference, reported IC50 for CC1(C(=O)N[C@@H](Cc2cccc3c(-c4ncc(CN5CCCCC5)c5ccccc45)cccc23)C(=O)O)CCN(CC(F)F)CC1 [Compound 687] stands at > 1 µM

For reference, reported IC50 for COc1ccc(CN2CCC(c3ccncc3)CC2)c(OC)c1-c1cccc2c(C[C@H](NC(=O)C3(C(F)(F)F)CCN(CC(F)(F)F)CC3)C(=O)O)cccc12 [Compound 808] stands at 0.1 to 1 µM

For reference, reported IC50 for O=C(O)[C@H](Cc1cccc2c(-c3ncc(CN4CCC(C(F)(F)F)CC4)c4ccccc34)cccc12)NC(=O)C1(C(F)(F)F)CCN(CC(F)(F)F)CC1 [Compound 874] stands at > 1 µM
